Data credit: the NIST ThermoML archive (doi:10.1016/j.jct.2009.11.014)

# Settings: 318.15 K; 8000 kPa; Liquid; vibrating tube
Measured mass density, listed per entry for reference.
Measured Property: mass density (kg/m3)

[[record]]
compound = "CCn1cc[n+](C)c1.F[B-](F)(F)F [1-ethyl-3-methylimidazolium tetrafluoroborate]"
readout_unit = "kg/m3"
endpoint_result = 1274.05

[[record]]
compound = "CCCCn1cc[n+](C)c1.F[B-](F)(F)F [1-butyl-3-methylimidazolium tetrafluoroborate]"
readout_unit = "kg/m3"
endpoint_result = 1191.39

[[record]]
compound = "CCCCCCCC[n+]1ccn(C)c1.F[B-](F)(F)F [1-methyl-3-octylimidazolium tetrafluoroborate]"
readout_unit = "kg/m3"
endpoint_result = 1095.03

[[record]]
compound = "CCCCCCn1cc[n+](C)c1.F[B-](F)(F)F [1-hexyl-3-methylimidazolium tetrafluoroborate]"
readout_unit = "kg/m3"
endpoint_result = 1135.78


----------
# Settings: 318.15 K; 20000 kPa; Liquid; vibrating tube
Measured Property: mass density (kg/m3)

[[record]]
compound = "CCCCn1cc[n+](C)c1.F[B-](F)(F)F [1-butyl-3-methylimidazolium tetrafluoroborate]"
measured_property = "mass density"
endpoint_result = 1196.98

[[record]]
compound = "CCCCCCCC[n+]1ccn(C)c1.F[B-](F)(F)F [1-methyl-3-octylimidazolium tetrafluoroborate]"
measured_property = "mass density"
endpoint_result = 1101.2

[[record]]
compound = "CCCCCCn1cc[n+](C)c1.F[B-](F)(F)F [1-hexyl-3-methylimidazolium tetrafluoroborate]"
measured_property = "mass density"
endpoint_result = 1141.71

[[record]]
compound = "CCn1cc[n+](C)c1.F[B-](F)(F)F [1-ethyl-3-methylimidazolium tetrafluoroborate]"
measured_property = "mass density"
endpoint_result = 1279.36


----------
# Settings: 293.15 K; 8000 kPa; Liquid; vibrating tube
Measured Property: mass density (kg/m3)

[[record]]
molecule = "CCCCn1cc[n+](C)c1.F[B-](F)(F)F [1-butyl-3-methylimidazolium tetrafluoroborate]"
measured_property = "mass density"
endpoint_result = 1208.85

[[record]]
molecule = "CCn1cc[n+](C)c1.F[B-](F)(F)F [1-ethyl-3-methylimidazolium tetrafluoroborate]"
measured_property = "mass density"
endpoint_result = 1292.79

[[record]]
molecule = "CCCCCCCC[n+]1ccn(C)c1.F[B-](F)(F)F [1-methyl-3-octylimidazolium tetrafluoroborate]"
measured_property = "mass density"
endpoint_result = 1111.66

[[record]]
molecule = "CCCCCCn1cc[n+](C)c1.F[B-](F)(F)F [1-hexyl-3-methylimidazolium tetrafluoroborate]"
measured_property = "mass density"
endpoint_result = 1152.76


----------
# Settings: 288.15 K; 30000 kPa; Liquid; vibrating tube
Measured mass density, listed per entry for reference.
Measured Property: mass density (kg/m3)

[[record]]
compound = "CCCCCCCC[n+]1ccn(C)c1.F[B-](F)(F)F [1-methyl-3-octylimidazolium tetrafluoroborate]"
readout_unit = "kg/m3"
endpoint_result = 1125.21

[[record]]
compound = "CCCCCCn1cc[n+](C)c1.F[B-](F)(F)F [1-hexyl-3-methylimidazolium tetrafluoroborate]"
readout_unit = "kg/m3"
endpoint_result = 1166.05

[[record]]
compound = "CCn1cc[n+](C)c1.F[B-](F)(F)F [1-ethyl-3-methylimidazolium tetrafluoroborate]"
readout_unit = "kg/m3"
endpoint_result = 1305.62

[[record]]
compound = "CCCCn1cc[n+](C)c1.F[B-](F)(F)F [1-butyl-3-methylimidazolium tetrafluoroborate]"
readout_unit = "kg/m3"
endpoint_result = 1221.96


----------
# Settings: 283.15 K; 100 kPa; Liquid; vibrating tube
Measured Property: mass density (kg/m3)

[[record]]
molecule = "CCCCCCCC[n+]1ccn(C)c1.F[B-](F)(F)F [1-methyl-3-octylimidazolium tetrafluoroborate]"
measured_property = "mass density"
endpoint_result = 1114.58

[[record]]
molecule = "CCn1cc[n+](C)c1.F[B-](F)(F)F [1-ethyl-3-methylimidazolium tetrafluoroborate]"
measured_property = "mass density"
endpoint_result = 1297.04

[[record]]
molecule = "CCCCCCn1cc[n+](C)c1.F[B-](F)(F)F [1-hexyl-3-methylimidazolium tetrafluoroborate]"
measured_property = "mass density"
endpoint_result = 1155.97

[[record]]
molecule = "CCCCn1cc[n+](C)c1.F[B-](F)(F)F [1-butyl-3-methylimidazolium tetrafluoroborate]"
measured_property = "mass density"
endpoint_result = 1212.53


----------
Measured mass density, listed per entry for reference.
# Settings: 283.15 K; 14000 kPa; Liquid; vibrating tube
Measured Property: mass density (kg/m3)

[[record]]
molecule = "CCCCCCn1cc[n+](C)c1.F[B-](F)(F)F [1-hexyl-3-methylimidazolium tetrafluoroborate]"
measured_property = "mass density"
endpoint_result = 1162.34

[[record]]
molecule = "CCCCn1cc[n+](C)c1.F[B-](F)(F)F [1-butyl-3-methylimidazolium tetrafluoroborate]"
measured_property = "mass density"
endpoint_result = 1218.63

[[record]]
molecule = "CCCCCCCC[n+]1ccn(C)c1.F[B-](F)(F)F [1-methyl-3-octylimidazolium tetrafluoroborate]"
measured_property = "mass density"
endpoint_result = 1121.19

[[record]]
molecule = "CCn1cc[n+](C)c1.F[B-](F)(F)F [1-ethyl-3-methylimidazolium tetrafluoroborate]"
measured_property = "mass density"
endpoint_result = 1302.82


----------
Measured mass density, listed per entry for reference.
# Settings: 308.15 K; 4000 kPa; Liquid; vibrating tube
Measured Property: mass density (kg/m3)

[[record]]
compound = "CCCCn1cc[n+](C)c1.F[B-](F)(F)F [1-butyl-3-methylimidazolium tetrafluoroborate]"
measured_property = "mass density"
endpoint_result = 1196.38

[[record]]
compound = "CCCCCCCC[n+]1ccn(C)c1.F[B-](F)(F)F [1-methyl-3-octylimidazolium tetrafluoroborate]"
measured_property = "mass density"
endpoint_result = 1099.56

[[record]]
compound = "CCCCCCn1cc[n+](C)c1.F[B-](F)(F)F [1-hexyl-3-methylimidazolium tetrafluoroborate]"
measured_property = "mass density"
endpoint_result = 1140.49

[[record]]
compound = "CCn1cc[n+](C)c1.F[B-](F)(F)F [1-ethyl-3-methylimidazolium tetrafluoroborate]"
measured_property = "mass density"
endpoint_result = 1279.69


----------
# Settings: 298.15 K; 60000 kPa; Liquid; vibrating tube
Measured mass density, listed per entry for reference.
Measured Property: mass density (kg/m3)

[[record]]
molecule = "CCn1cc[n+](C)c1.F[B-](F)(F)F [1-ethyl-3-methylimidazolium tetrafluoroborate]"
readout_unit = "kg/m3"
endpoint_result = 1309.95

[[record]]
molecule = "CCCCCCn1cc[n+](C)c1.F[B-](F)(F)F [1-hexyl-3-methylimidazolium tetrafluoroborate]"
readout_unit = "kg/m3"
endpoint_result = 1172.02

[[record]]
molecule = "CCCCn1cc[n+](C)c1.F[B-](F)(F)F [1-butyl-3-methylimidazolium tetrafluoroborate]"
readout_unit = "kg/m3"
endpoint_result = 1227.21

[[record]]
molecule = "CCCCCCCC[n+]1ccn(C)c1.F[B-](F)(F)F [1-methyl-3-octylimidazolium tetrafluoroborate]"
readout_unit = "kg/m3"
endpoint_result = 1131.57


----------
Measured mass density, listed per entry for reference.
# Settings: 288.15 K; 50000 kPa; Liquid; vibrating tube
Measured Property: mass density (kg/m3)

[[record]]
compound = "CCCCCCn1cc[n+](C)c1.F[B-](F)(F)F [1-hexyl-3-methylimidazolium tetrafluoroborate]"
measured_property = "mass density"
readout_unit = "kg/m3"
endpoint_result = 1174.45

[[record]]
compound = "CCCCn1cc[n+](C)c1.F[B-](F)(F)F [1-butyl-3-methylimidazolium tetrafluoroborate]"
measured_property = "mass density"
readout_unit = "kg/m3"
endpoint_result = 1230.05

[[record]]
compound = "CCn1cc[n+](C)c1.F[B-](F)(F)F [1-ethyl-3-methylimidazolium tetrafluoroborate]"
measured_property = "mass density"
readout_unit = "kg/m3"
endpoint_result = 1313.39

[[record]]
compound = "CCCCCCCC[n+]1ccn(C)c1.F[B-](F)(F)F [1-methyl-3-octylimidazolium tetrafluoroborate]"
measured_property = "mass density"
readout_unit = "kg/m3"
endpoint_result = 1133.75


----------
# Settings: 303.15 K; 50000 kPa; Liquid; vibrating tube
Measured mass density, listed per entry for reference.
Measured Property: mass density (kg/m3)

[[record]]
compound = "CCCCn1cc[n+](C)c1.F[B-](F)(F)F [1-butyl-3-methylimidazolium tetrafluoroborate]"
endpoint_result = 1219.9

[[record]]
compound = "CCCCCCCC[n+]1ccn(C)c1.F[B-](F)(F)F [1-methyl-3-octylimidazolium tetrafluoroborate]"
endpoint_result = 1124.34

[[record]]
compound = "CCCCCCn1cc[n+](C)c1.F[B-](F)(F)F [1-hexyl-3-methylimidazolium tetrafluoroborate]"
endpoint_result = 1164.76

[[record]]
compound = "CCn1cc[n+](C)c1.F[B-](F)(F)F [1-ethyl-3-methylimidazolium tetrafluoroborate]"
endpoint_result = 1302.56


----------
# Settings: 283.15 K; 10000 kPa; Liquid; vibrating tube
Numbers after ± are expanded uncertainties.
Measured Property: mass density

[[record]]
compound = "CCCCCCn1cc[n+](C)c1.F[B-](F)(F)F [1-hexyl-3-methylimidazolium tetrafluoroborate]"
endpoint_result = "1160.53 ± 0.96 kg/m3"

[[record]]
compound = "CCCCCCCC[n+]1ccn(C)c1.F[B-](F)(F)F [1-methyl-3-octylimidazolium tetrafluoroborate]"
endpoint_result = "1119.31 ± 0.94 kg/m3"

[[record]]
compound = "CCCCn1cc[n+](C)c1.F[B-](F)(F)F [1-butyl-3-methylimidazolium tetrafluoroborate]"
endpoint_result = "1216.89 ± 0.99 kg/m3"

[[record]]
compound = "CCn1cc[n+](C)c1.F[B-](F)(F)F [1-ethyl-3-methylimidazolium tetrafluoroborate]"
endpoint_result = "1301.22 ± 1.6 kg/m3"

